system: 380; assay: selective drug sensitivity score (sDSS, relative to normal bone marrow) (sDSS (score)); higher = more potent and effective on the cell line relative to normal bone marrow cells; details: 72 h;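 note: ALL cell lines in 384-well plates, five doses spanning 10,000-fold, each plate scaled between vehicle and 100 µmol/L benzalkonium chloride controls, sDSS an adapted area-under-curve metric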
endpoint: selective drug sensitivity score

1) NC(=O)Nc1cc(-c2cccc(F)c2)sc1C(=O)N[C@H]1CCCNC1 [AZD7762] (top concentration 1000 nM) ... 1
2) CNc1nc(Nc2cn(C(C)(C)C#N)nc2C)ncc1C(F)(F)F [GNE-0877] (top concentration 1000 nM) ... 0
3) C[C@H](Nc1ncnc2[nH]cnc12)c1cc2ccc(F)cc2nc1-c1ccccn1 [AMG319] (top concentration 1000 nM) ... -1.02
4) CCN(CC)CCCC(C)Nc1c2ccc(Cl)cc2nc2ccc(OC)cc12 (configuration not stated) [Mepacrine] (top concentration 50000 nM) ... -1.7
5) Nc1nc2[nH]cnc2c(=S)[nH]1 [Thioguanine] (top concentration 10000 nM) ... 6.04
6) C=CC(=O)Nc1cccc(Nc2nc(Nc3ccc(OCCOC)cc3)ncc2F)c1 [Spebrutinib] (top concentration 1000 nM) ... -0.16
7) CCCCCOC(=O)Nc1nc(=O)n([C@@H]2O[C@H](C)[C@@H](O)[C@H]2O)cc1F [Capecitabine] (top concentration 10000 nM) ... -0.06

###

As shown below, each of these molecules has a reported selective drug sensitivity score value.
test system: REH; experiment: selective drug sensitivity score (sDSS, relative to normal bone marrow) (sDSS (score)); higher = more potent and effective on the cell line relative to normal bone marrow cells; settings: 72 h
endpoint: selective drug sensitivity score

1. COc1cc(OC)cc(N(CCNC(C)C)c2ccc3ncc(-c4cnn(C)c4)nc3c2)c1 [Erdafitinib] (top concentration 1000 nM) ... 0.44
2. CCNCCS(=O)(=O)NC[C@@]1(c2ccccc2)SC(NC(=O)C(C)(C)C)=NN1C(=O)C(C)(C)C [Litronesib] (top concentration 1000 nM) ... 22.3
3. Cc1ccc(Nc2nccc(N(C)c3ccc4c(C)n(C)nc4c3)n2)cc1S(N)(=O)=O [Pazopanib] (top concentration 10000 nM) ... 4.14

###

test system: DND-41; test: selective drug sensitivity score (sDSS, relative to normal bone marrow) (sDSS (score)); higher = more potent and effective on the cell line relative to normal bone marrow cells; details: 72 h
endpoint: selective drug sensitivity score

1. CC(C)(C)NC(=O)[C@H]1CC[C@H]2[C@@H]3CC[C@H]4NC(=O)C=C[C@]4(C)[C@H]3CC[C@]12C [Finasteride] (top concentration 10000 nM) ... 2.98
2. COc1cc2nccc(Oc3ccc(NC(=O)C4(C(=O)Nc5ccc(F)cc5)CC4)cc3)c2cc1OC [Cabozantinib] (top concentration 1000 nM) ... -3.62
3. Cc1cc(Nc2cc(CN3CCOCC3)c3nc(C)c(Cc4ccc(Cl)cc4F)n3n2)n[nH]1 [Gandotinib] (top concentration 10000 nM) ... 7.28

###

As shown below, each of these compounds has a reported selective drug sensitivity score value.
tested on: COG-LL-319h; experiment: selective drug sensitivity score (sDSS, relative to normal bone marrow) (sDSS (score)); higher = more potent and effective on the cell line relative to normal bone marrow cells; conditions: 72 h
endpoint: selective drug sensitivity score

1) CCCCCOC(=O)Nc1nc(=O)n([C@@H]2O[C@H](C)[C@@H](O)[C@H]2O)cc1F [Capecitabine] (top concentration 10000 nM) ... -0.06
2) CNC(=O)c1cc(COc2nnc(Nc3ccc(Cl)cc3)c3ccoc23)ccn1 [Telatinib] (top concentration 10000 nM) ... 0
3) CNC(=O)c1ccccc1Sc1ccc2c(/C=C/c3ccccn3)n[nH]c2c1 [Axitinib] (top concentration 10000 nM) ... 7.96

###

tested on: ALL-SIL; assay: selective drug sensitivity score (sDSS, relative to normal bone marrow) (sDSS (score)); higher = more potent and effective on the cell line relative to normal bone marrow cells; details: 72 h
endpoint: selective drug sensitivity score

1. COc1ccc(CCc2nc3cc(-c4c(C)noc4C)ccc3n2C[C@H](C)N2CCOCC2)cc1Cl [SGC-CBP30] (top concentration 25000 nM) ... 4.68
2. CO[C@H]1CC[C@H](N2C(=O)CNc3ncc(-c4ccc(C(C)(C)O)nc4)nc32)CC1 [CC-223] (top concentration 10000 nM) ... 1.32
3. CC(C)NC[C@@H](C(=O)N1CCN(c2ncnc3c2[C@H](C)C[C@H]3O)CC1)c1ccc(Cl)cc1 [Ipatasertib] (top concentration 10000 nM) ... 2.9
4. O=C(c1ccc(F)c(F)c1Nc1ccc(I)cc1F)N1CC(O)([C@@H]2CCCCN2)C1 [Cobimetinib] (top concentration 1000 nM) ... -2.98
5. Cc1cnc(Nc2ccc(OCCN3CCCC3)cc2)nc1Nc1cccc(S(=O)(=O)NC(C)(C)C)c1 [Fedratinib] (top concentration 10000 nM) ... 0.84
6. CC1=C(/C=C/C(C)=C/C=C/C(C)=C/C(=O)O)C(C)(C)CCC1 [Tretinoin] (top concentration 10000 nM) ... -2.4
7. O=C(Nc1ccc(OC(F)(F)Cl)cc1)c1cnc(N2CC[C@@H](O)C2)c(-c2cc[nH]n2)c1 [Asciminib] (top concentration 1000 nM) ... 31.2
8. CC(=O)Nc1ccc(C(=O)Nc2ccccc2N)cc1 [Tacedinaline] (top concentration 1000 nM) ... 6.08
9. O=c1[nH]c(=O)n([C@H]2C[C@H](O)[C@@H](CO)O2)cc1F [Floxuridine] (top concentration 10000 nM) ... 18.3
10. FC(F)c1nc2ccccc2n1-c1nc(N2CCOCC2)nc(N2CCOCC2)n1 [ZSTK474] (top concentration 10000 nM) ... 2.46
11. COc1ccc(-c2ccc3ncc4c(c3c2)n(-c2ccc(N3CCNCC3)c(C(F)(F)F)c2)c(=O)n4C)cn1 [NVP-BGT226] (top concentration 1000 nM) ... 2.82
12. Nc1nc(NC2CC2)cc(-c2cccc(Cl)c2Cl)n1 [TH588] (top concentration 25000 nM) ... 14.7
13. Cc1sc2c(c1C)C(c1ccc(Cl)cc1)=N[C@@H](CC(=O)Nc1ccc(OCCOCCOCCOCCNc3cccc4c3C(=O)N(C3CCC(=O)NC3=O)C4=O)cc1)c1nnc(C)n1-2 (some centres not stated) [ARV-825] (top concentration 300 nM) ... -6.46
14. CNC(=O)c1ccccc1Nc1cc(Nc2ccc(N3CCOCC3)cc2OC)ncc1C(F)(F)F [VS-4718] (top concentration 10000 nM) ... 4.3
15. NC(=O)Nc1cc(-c2cccc(F)c2)sc1C(=O)N[C@H]1CCCNC1 [AZD7762] (top concentration 1000 nM) ... 0
16. Cc1cc([C@@H](C)Nc2ccccc2C(=O)O)c2nc(N3CCOCC3)cc(=O)n2c1 [AZD-6482] (top concentration 2500 nM) ... -0.28
17. C[C@@H](Oc1cc(-n2cnc3ccc(CN4CCN(C)CC4)cc32)sc1C(N)=O)c1ccccc1C(F)(F)F (top concentration 10000 nM) ... 23.4
18. CN1CCN(CCOc2cc(OC3CCOCC3)c3c(Nc4c(Cl)ccc5c4OCO5)ncnc3c2)CC1 [Saracatinib] (top concentration 10000 nM) ... 17.7
19. CCCC(CCC)C(=O)O [Valproic_acid] (top concentration 1000000 nM) ... 0
20. CNC(=O)c1ccccc1Nc1nc(Nc2ccc3c(c2OC)CCC[C@H](N2CCN(CCO)CC2)C3)ncc1Cl (top concentration 5000 nM) ... 1.36
21. Nc1nccc(-c2c(-c3ccc(F)cc3)ncn2C2CCCCC2)n1 (top concentration 10000 nM) ... 1.5
22. CN1CCN(c2cc(C(=O)Nc3ccc4c(c3)-c3c(c(C(N)=O)nn3-c3ccc(F)cc3)CC4)c(Cl)cn2)CC1 [PHA-408] (top concentration 10000 nM) ... 2.58
23. Cc1nn(C)c(COc2ccc(N3CCN(S(=O)(=O)N(C)C)CC3)cc2)c1-c1cccc2c(CCCOc3cccc4ccccc34)c(C(=O)O)n(CCN3CCOCC3)c12 (top concentration 50000 nM) ... 7.26
24. Cn1cc(-c2cnn3c(N)c(Br)c([C@@H]4CCCNC4)nc23)cn1 [MK-8776] (top concentration 2500 nM) ... 2.04
25. CCC(C)n1ncn(-c2ccc(N3CCN(c4ccc(OCC5COC(Cn6cncn6)(c6ccc(Cl)cc6Cl)O5)cc4)CC3)cc2)c1=O (configuration not stated) [Itraconazole] (top concentration 5000 nM) ... 2.88
26. CC(=O)N(O)CCCCCNC(=O)CCC(=O)N(O)CCCCCNC(=O)CCC(=O)N(O)CCCCCN [Deferoxamine] (top concentration 10000 nM) ... 3.56
27. CC(C)C[C@H](NC(=O)[C@H](Cc1ccccc1)NC(=O)c1cnccn1)B(O)O [Bortezomib] (top concentration 1000 nM) ... 4.72
